The reader will find reported Kd values listed item by item below.
# measuredOn: Interleukin-8 (IL8, CXCL8), C-terminal His-tagged (Homo sapiens, UniProt P10145 SEQ:1-72)
# Sequence (P10145 28-99): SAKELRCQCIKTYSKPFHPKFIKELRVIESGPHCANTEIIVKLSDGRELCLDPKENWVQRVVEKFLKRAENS
# protocolDescription: TR-FRET, 500 pM IL8, protein-limited; estimated about 20 pM
# conditionParameters: tags: C-terminal 6xHis (Sino Biological); label: Alexa Fluor 647; stem-loop

{"binder": "GGCGACGGUAGAUUAUGGGCAGUGUGACCGCGCC (ssRNA, 2'-F G, 2'-OMe A/C/U, 5' C6NH2, 3' idT) [Aptamer 147]", "Kd": "110 pM"}
{"binder": "GGCGACGGUAGAUUAUGGGCAGUGUGACCGCGCC (ssRNA, 2'-OMe A/C/U, 2'-OMe G in stems S1, S2 and loop L2, 2'-F at other G, 5' C6NH2, 3' idT) [Aptamer 269]", "Kd": "126 pM"}
